Listing of recorded IC50 by entry.
- Assayed Target: DNA-PK (Homo sapiens (Human), UniProt P78527)
- Procedure Details: DNA-PK assay (biochemical), flashplate 33P-ATP kinase assay
- Test Conditions: enzymatic; 5 μM ATP
Observable: IC50

                                   compound  observable  recorded_measurement
0  OC(c1ccc(F)c(-c2ncnc3cc(N4CCOCC4)ccc23)c1)c1c(Cl)cncc1Cl (centres unmarked) [Example 17]        IC50             3 to 7 nM
1  OC(c1ccnnc1)c1cc(-c2ncnc3cc(N4CCOCC4)ccc23)c(F)cc1Cl (centres unmarked) [Example 36]        IC50                < 3 nM
2  C#Cc1nc(-c2cc(C(O)c3nccs3)ccc2F)c2ccc(N3CCOCC3)cc2n1 (centres unmarked) [Example 216]        IC50                < 3 nM
3  OC(c1ccc(F)c(-c2ncnc3cc(N4CCOCC4)ccc23)c1)c1nccs1 (centres unmarked) [Example 211]        IC50             3 to 7 nM
4  COc1ccc([C@@H](O)c2ccc(F)c(-c3ncnc4cc(N5CCOCC5)ccc34)c2)nn1 [Example 72]        IC50                < 3 nM
5  OC(c1ccc(F)c(-c2ncnc3cc(N4CCOCC4)ccc23)c1)c1ncccc1C(F)(F)F (centres unmarked) [Example 80]        IC50             3 to 7 nM
6  OCCOc1ccc(C(O)c2cc(-c3ncnc4cc(N5CCOCC5)ccc34)c(F)cc2Cl)nn1 (centres unmarked) [Example 116]        IC50                < 3 nM
7  CN(C)C(=O)c1ccc(C(O)c2cc(-c3ncnc4cc(N5CCOCC5)ccc34)c(F)cc2Cl)nn1 (centres unmarked) [Example 50]        IC50            7 to 30 nM

---

- Assayed Target: Kv11.1 (hERG) (Homo sapiens (Human))
- Sequence (Q12809 whole entry): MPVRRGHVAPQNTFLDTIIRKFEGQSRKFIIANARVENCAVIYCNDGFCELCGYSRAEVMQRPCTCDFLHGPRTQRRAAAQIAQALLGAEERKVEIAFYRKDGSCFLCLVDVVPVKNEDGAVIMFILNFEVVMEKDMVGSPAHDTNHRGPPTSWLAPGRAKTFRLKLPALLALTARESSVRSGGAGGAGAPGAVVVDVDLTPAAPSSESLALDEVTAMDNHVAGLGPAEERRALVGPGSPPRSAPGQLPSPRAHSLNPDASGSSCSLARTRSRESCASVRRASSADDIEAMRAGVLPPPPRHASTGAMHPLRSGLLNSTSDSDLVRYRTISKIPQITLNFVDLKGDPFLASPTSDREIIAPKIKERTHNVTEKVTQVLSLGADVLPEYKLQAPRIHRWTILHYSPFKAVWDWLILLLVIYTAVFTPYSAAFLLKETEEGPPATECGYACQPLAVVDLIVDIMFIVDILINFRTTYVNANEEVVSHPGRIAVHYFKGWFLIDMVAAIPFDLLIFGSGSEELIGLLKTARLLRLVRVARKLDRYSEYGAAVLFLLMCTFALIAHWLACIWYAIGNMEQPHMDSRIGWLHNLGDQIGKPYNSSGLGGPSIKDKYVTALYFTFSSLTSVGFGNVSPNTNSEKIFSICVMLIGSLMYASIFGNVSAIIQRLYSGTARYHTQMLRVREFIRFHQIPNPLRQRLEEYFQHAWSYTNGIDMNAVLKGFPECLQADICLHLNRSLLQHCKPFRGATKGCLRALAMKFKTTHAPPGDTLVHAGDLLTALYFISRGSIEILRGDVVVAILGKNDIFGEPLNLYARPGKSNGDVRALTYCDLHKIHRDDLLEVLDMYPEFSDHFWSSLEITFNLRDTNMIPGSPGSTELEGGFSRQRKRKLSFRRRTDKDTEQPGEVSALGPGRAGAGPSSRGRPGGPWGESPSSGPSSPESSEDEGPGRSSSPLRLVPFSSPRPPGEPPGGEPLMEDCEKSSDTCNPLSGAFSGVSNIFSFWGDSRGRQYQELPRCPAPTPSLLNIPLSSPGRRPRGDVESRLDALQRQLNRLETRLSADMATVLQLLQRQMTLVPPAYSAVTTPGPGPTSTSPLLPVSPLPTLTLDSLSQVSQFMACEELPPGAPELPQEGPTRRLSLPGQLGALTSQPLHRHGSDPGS
- Procedure Details: Kv11.1 (hERG) ion channel activity (patch clamp assay), HEK293 cells transfected with hERG gene
- Test Conditions: human, HEK293 cells stably transfected with the hERG gene, Ki [Kv1.11 hERG], patch clamp, HEK293 transfected with hERG gene
pKi: −log10 of the molar value.
Observable: pKi

>>> df
                                   molecule  observable  recorded_measurement
0  COc1ccc(C(O)c2cc(-c3ncnc4cc(N5CCOCC5)sc34)c(F)cc2Cl)nn1 (single isomer, unassigned) [Example 126]         pKi          4.82 to 5.00
1  OC(c1ccc(F)c(-c2ncnc3cc(N4CCOCC4)sc23)c1)c1nccnc1Cl (single isomer, unassigned) [Example 24]         pKi          4.60 to 4.82
2  Cc1nccnc1[C@H](O)c1cc(-c2ncnc3cc(N4CCOCC4)ccc23)c(F)cc1F [Example 84]         pKi          4.60 to 4.82
3  OC(c1cccnn1)c1cc(-c2ncnc3cc(N4CCOCC4)ccc23)c(F)cc1Cl (single isomer, unassigned) [Example 29]         pKi          4.60 to 4.82

---

Measured IC50 by item
- Assayed Target: DNA-PK (Homo sapiens (Human), UniProt P78527)
- Procedure Details: DNA-PK assay (biochemical), flashplate 33P-ATP kinase assay
- Test Conditions: biochemical DNA-PK assay
- Procedure: A) DNA-PK Assay (Biochemical) The kinase assay was carried out in streptavidin-coated […] microtitre flashplates. […] The reaction was stopped using 50 μl/well of 200 mM EDTA. After incubation for a further 30 min at room temperature, the liquid was removed. […] A nonspecific reaction (blank value) was determined using 10 μM of an innate kinase inhibitor. The radioactivity measurement was carried out using a TopCount. IC50 values were calculated in RS1.
Observable: IC50

In [3]: df
Out[3]:
                                   molecule  recorded_measurement
0  Cn1c(C(O)c2ccc(F)c(-c3ncnc4cc(N5CCOCC5)ccc34)c2)cccc1=O (centres unmarked) [Example 375]                < 3 nM
1  NC(=O)C(c1ccc(F)c(-c2ncnc3cc(N4CCOCC4)ccc23)c1)c1nccn2ncnc12 (centres unmarked)            7 to 30 nM
2  COc1cncnc1C(O)c1cc(-c2ncnc3cc(N4CCOCC4)ccc23)ccc1Cl (centres unmarked) [Example 408]             3 to 7 nM
3  Cn1cnc2c(C(O)c3cc(-c4ncnc5cc(N6CCOCC6)ccc45)ccc3F)ncnc21 (centres unmarked)            7 to 30 nM
4  O=c1[nH]nc(C(O)c2ccc(F)c(-c3ncnc4cc(N5CCOCC5)ccc34)c2)c2ccsc12 (centres unmarked)                < 3 nM
5  OC(c1cc(-c2ncnc3cc(N4CCOCC4)ccc23)c(F)cc1Cl)c1ncnc2sccc12 (centres unmarked)                < 3 nM
6  OC(c1cc(-c2ncnc3cc(N4CCOCC4)ccc23)ccc1Cl)c1ncncc1F (centres unmarked) [Example 389]            7 to 30 nM
7  COc1nccnc1C(O)c1cc(-c2ncnc3cc(N4CCOCC4)ccc23)ccc1F (centres unmarked)             3 to 7 nM

---

- Assayed Target: DNA-PK (Homo sapiens (Human), UniProt P78527)
- Procedure Details: DNA-PK assay (biochemical), flashplate 33P-ATP kinase assay
- Test Conditions: biochemical DNA-PK assay
IC50 values for the molecules below.
Observable: IC50

>>> print(df.to_string())
                                   molecule  recorded_measurement
0  Cc1nccnc1Cc1ccc(F)c(-c2ncnc3cc(N4CCOCC4)ccc23)c1             3 to 7 nM
1  OC(c1cc(-c2ncnc3cc(N4CCOCC4)ccc23)c(F)cc1F)c1nncc2ccsc12 (centres unmarked)                < 3 nM
2  COc1nccnc1C(O)c1cc(-c2ncnc3cc(N4CCOCC4)cnc23)c(F)cc1Cl (centres unmarked) [Example 247]            7 to 30 nM
3  COc1ccc(C(O)c2cc(-c3ncnc4cc(N5CCOCC5)ccc34)ccc2Cl)nn1 (centres unmarked) [Example 460]             3 to 7 nM
4  CN1CCN(c2nccnc2C(O)c2ccc(F)c(-c3ncnc4cc(N5CCOCC5)ccc34)c2)C1=O (centres unmarked)               > 30 nM
5  COc1ccc(C(O)c2cc(-c3ncnc4cc(N5CCOCC5)cnc34)c(F)cc2Cl)nn1 (centres unmarked) [Example 228]               > 30 nM
6  OC(c1ccc(F)c(-c2ncnc3cc(N4CCOCC4)ccc23)c1)c1nccc2ccoc12 (centres unmarked)                < 3 nM
7  Cn1nc(C(O)c2ccc(F)c(-c3ncnc4cc(N5CCOCC5)ccc34)c2)ccc1=O (centres unmarked)            7 to 30 nM

---

Here the recorded IC50 is given for each entry.
- Assayed Target: DNA-PK phosphorylation at serine 2056 (Homo sapiens (Human))
- Procedure Details: DNA-PK phosphorylation at serine 2056 (cellular), bleomycin-treated HCT116 cells, ELISA
- Type: cell-based
- Test Conditions: cellular DNA-PK phosphorylation at serine 2056, HCT116; read-out: IC50 pDNA-PK
Observable: IC50

>>> df
                                   compound  recorded_measurement
0  OC(c1cc(-c2ncnc3cc(N4CCOCC4)ccc23)c(F)cc1Cl)c1ncnc2ccoc12 (stereo not shown) [Example 441]              < 0.5 µM
1  COc1nccnc1C(C(N)=O)c1cc(-c2ncnc3cc(N4CCOCC4)ccc23)c(F)cc1F (stereo not shown)            5 to 10 µM
2  Cn1c(C(O)c2ccc(F)c(-c3ncnc4cc(N5CCOCC5)ccc34)c2)cccc1=O (stereo not shown) [Example 375]           0.5 to 5 µM
3  Cc1cncnc1C(C(N)=O)c1cc(-c2ncnc3cc(N4CCOCC4)ccc23)ccc1Cl (stereo not shown) [Example 378]           0.5 to 5 µM

---

- Assayed Target: DNA-PK (Homo sapiens (Human), UniProt P78527)
- Procedure Details: DNA-PK assay (biochemical), flashplate 33P-ATP kinase assay
- Test Conditions: Table 5
Attribute: IC50
Observable: IC50

                                   compound  recorded_measurement
0  OC(c1ccc(F)c(-c2ncnc3cc(N4CCOCC4)ncc23)c1)c1nccs1 (stereo not shown)             > 0.03 µM
1  COC(c1ccc(F)c(-c2ncnc3cc(N4CCOCC4)ccc23)c1)c1nccs1 (stereo not shown) [Example 176]      0.007 to 0.03 µM
2  Cc1nc(C(O)c2cc(-c3ncnc4cc(N5CCOCC5)ccc34)cnc2F)sc1C (stereo not shown) [Example 194]      0.007 to 0.03 µM
3  OC(c1cc(F)cc(-c2ncnc3cc(N4CCOCC4)ccc23)c1)c1nccs1 (stereo not shown)      0.007 to 0.03 µM
4  CC(O)(c1cc(-c2ncnc3cc(N4CCOCC4)ccc23)ccn1)c1nccs1 (stereo not shown)             > 0.03 µM
5  Cc1csc(C(O)c2cc(-c3ncnc4cc(N5CCOCC5)ccc34)c(F)cc2Cl)n1 (stereo not shown)            < 0.003 µM
6  Cc1nc(C(O)c2cc(-c3ncnc4cc(N5CCOCC5)ccc34)cnc2F)sc1C (stereo not shown) [Example 206]             > 0.03 µM
7  OC(c1cccc(-c2ncnc3cc(N4CCOCC4)sc23)c1)c1nccs1 (stereo not shown)      0.007 to 0.03 µM
8  OC(c1cccc(-c2ncnc3cc(N4CCOCC4)ccc23)c1)(c1nccs1)C(F)(F)F (stereo not shown) [Example 172]      0.007 to 0.03 µM
9  CC(O)(c1cncc(-c2ncnc3cc(N4CCOCC4)ccc23)c1)c1nccs1 (stereo not shown) [Example 151]             > 0.03 µM
